molecular target: UniProtKB P30542; experiment: Displacement of [125I]ABA from human adenosine A1 receptor expressed in CHOK1 cells; type: cell-based, CHO-K1
Sequence (P30542 whole entry): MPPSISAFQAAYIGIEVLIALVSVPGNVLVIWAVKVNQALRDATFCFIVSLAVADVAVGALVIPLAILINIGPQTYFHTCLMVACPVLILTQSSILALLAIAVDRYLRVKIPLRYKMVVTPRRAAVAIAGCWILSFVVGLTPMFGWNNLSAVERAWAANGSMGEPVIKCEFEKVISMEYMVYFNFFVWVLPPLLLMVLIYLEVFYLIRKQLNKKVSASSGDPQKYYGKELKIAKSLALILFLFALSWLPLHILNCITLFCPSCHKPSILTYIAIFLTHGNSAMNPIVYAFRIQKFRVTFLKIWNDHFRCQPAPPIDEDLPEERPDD
Task for the reader: assign each of the following compounds its reported log10 Ki.
On a log10 scale: recorded Ki, unit nM.

These recorded examples may help you get a feel for the data.
{"smiles": "CCCn1c(=O)c2[nH]c([C@H]3CC[C@H](CO)CC3)nc2n(CCC)c1=O", "log10 Ki": 1.61}
{"smiles": "CCCn1c(=O)c2nc([C@]34CC[C@](C(=O)O)(CC3)CC4)[nH]c2n(CCC)c1=O", "log10 Ki": 1.52}
{"smiles": "CCCn1c(=O)c2nc([C@]34CC[C@](C(=O)NCC(=O)OC)(CC3)CC4)[nH]c2n(CCC)c1=O", "log10 Ki": 0.90}
{"smiles": "CCCn1c(=O)c2nc([C@]34CC[C@](C(=O)N(C)CC(=O)OC)(CC3)CC4)[nH]c2n(CCC)c1=O", "log10 Ki": 2.05}
{"smiles": "CCCn1c(=O)c2nc([C@]34CC[C@](C=O)(CC3)CC4)[nH]c2n(CCC)c1=O", "log10 Ki": 1.18}

Okay, here is my list. What is log10 Ki for each of these?
1. CCCn1c(=O)c2nc([C@H]3CC[C@H](C(=O)NCCN(C)C)CC3)[nH]c2n(CCC)c1=O
2. CCCn1c(=O)c2nc([C@]34CC[C@](C(=O)NCCN(C)C)(CC3)CC4)[nH]c2n(CCC)c1=O
3. CCCn1c(=O)c2nc([C@]34CC[C@](CO)(CC3)CC4)[nH]c2n(CCC)c1=O

Key:
1: 1.08; 2: 0.78; 3: 1.20
